The following molecules have recorded Ki on Fatty acid-binding protein, heart (Homo sapiens, UniProt P05413).
Sequence (P05413 whole entry): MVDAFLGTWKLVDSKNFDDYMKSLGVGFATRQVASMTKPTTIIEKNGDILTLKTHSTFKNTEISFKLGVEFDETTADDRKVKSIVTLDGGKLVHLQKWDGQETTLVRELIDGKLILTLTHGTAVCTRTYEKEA

# query: Ki of entry "Cc1ccc(Nc2cccc(Cl)c2-c2ccccc2)c(C(=O)O)c1"
7.46 µM

# query: Ki of entry "O=C(O)c1cc(F)ccc1Nc1cccc(Cl)c1-c1ccccc1"
0.37 µM

# query: Ki of entry "COc1cccc(Nc2cccc(Cl)c2-c2ccccc2)c1C(=O)O"
> 5 µM

# query: Ki of entry "O=C(O)c1c(Cl)cccc1Nc1cccc(Cl)c1-c1ccccc1"
5.18 µM

# query: Ki of entry "Cc1c(F)ccc(Nc2cccc(Cl)c2-c2ccc3c(c2)CCO3)c1C(=O)O"
7.51 µM
